AUC reference
- COND: mouse, in vivo, po, 100 mg/kg, 120 min
Counter-ions that a name gives are not always drawn.
Field format: number, assumed µg·h/mL, no unit text.

Solved cases (3 shown):
MOLECULE: CN(C)CCn1nnnc1SCC1=C(C(=O)OC(OC(=O)C2CCCCC2)C2CCCCC2)N2C(=O)[C@@H](NC(=O)Cc3csc(N)n3)[C@H]2SC1.Cl.Cl (stereo partly shown) [compound 2]
RESULT_UNIT: µg·h/mL
READOUT_NUMBER: 41.9

MOLECULE: CC(C)C(OC(=O)CC1CCCCC1)OC(=O)C1=C(CSc2nnnn2CCN(C)C)CS[C@@H]2[C@H](NC(=O)Cc3csc(N)n3)C(=O)N12.Cl.Cl (stereo partly shown) [compound 5]
RESULT_UNIT: µg·h/mL
READOUT_NUMBER: 34.5

MOLECULE: CC(C)C(OC(=O)C1=C(CSc2nnnn2CCN(C)C)CS[C@@H]2[C@H](NC(=O)Cc3csc(N)n3)C(=O)N12)OC(=O)C1CCCCC1.Cl.Cl (stereo partly shown) [Compound No. 1]
RESULT_UNIT: µg·h/mL
READOUT_NUMBER: 36.6

Quick note, AUC for CCC(OC(=O)C1=C(CSc2nnnn2CCN(C)C)CS[C@@H]2[C@H](NC(=O)Cc3csc(N)n3)C(=O)N12)OC(=O)C1CCCCC1.Cl.Cl (stereo partly shown) [compound 3] landed at 33.5

Quick note, AUC for CCCCC(=O)OC(OC(=O)C1=C(CSc2nnnn2CCN(C)C)CS[C@@H]2[C@H](NC(=O)Cc3csc(N)n3)C(=O)N12)C1CCCCC1.Cl.Cl (stereo partly shown) [Compound No. 7] landed at 34.5

Quick note, AUC for CCCC(=O)OC(OC(=O)C1=C(CSc2nnnn2CCN(C)C)CS[C@@H]2[C@H](NC(=O)Cc3csc(N)n3)C(=O)N12)C1CCCCC1 (stereo partly shown) [Compound No. 8, dihydrochloride] landed at 40.2

Quick note, AUC for CCCC(OC(=O)C1=C(CSc2nnnn2CCN(C)C)CS[C@@H]2[C@H](NC(=O)Cc3csc(N)n3)C(=O)N12)OC(=O)C1CCCCC1.Cl.Cl (stereo partly shown) [compound 4] landed at 38.4

* * *

- COND: mouse, in vivo, po, 100 mg/kg, 15 min
Structures can show the parent of a compound that is named as a salt.
Plasma level of non-ester (compound [II]), 0.25 hr reference
Field format: number, assumed µg/mL, no unit text.

Solved cases (4 shown):
MOLECULE: CN(C)CCn1nnnc1SCC1=C(C(=O)OC(OC(=O)C2CCCCC2)C2CCCCC2)N2C(=O)[C@@H](NC(=O)Cc3csc(N)n3)[C@H]2SC1.Cl.Cl (some centres unmarked)
RESULT_UNIT: µg/mL
READOUT_NUMBER: 46.1
--
MOLECULE: CCCCC(=O)OC(OC(=O)C1=C(CSc2nnnn2CCN(C)C)CS[C@@H]2[C@H](NC(=O)Cc3csc(N)n3)C(=O)N12)C1CCCCC1.Cl.Cl (some centres unmarked)
RESULT_UNIT: µg/mL
READOUT_NUMBER: 36.4
--
MOLECULE: CC(C)C(OC(=O)CC1CCCCC1)OC(=O)C1=C(CSc2nnnn2CCN(C)C)CS[C@@H]2[C@H](NC(=O)Cc3csc(N)n3)C(=O)N12.Cl.Cl (some centres unmarked)
RESULT_UNIT: µg/mL
READOUT_NUMBER: 29.2
--
MOLECULE: CCC(OC(=O)C1=C(CSc2nnnn2CCN(C)C)CS[C@@H]2[C@H](NC(=O)Cc3csc(N)n3)C(=O)N12)OC(=O)C1CCCCC1.Cl.Cl (some centres unmarked)
RESULT_UNIT: µg/mL
READOUT_NUMBER: 59.5

Query molecule follows.
Quick note, Plasma level of non-ester (compound [II]), 0.25 hr for CCCC(=O)OC(OC(=O)C1=C(CSc2nnnn2CCN(C)C)CS[C@@H]2[C@H](NC(=O)Cc3csc(N)n3)C(=O)N12)C1CCCCC1 (some centres unmarked) [Compound No. 8, dihydrochloride] landed at 50.0

* * *

Plasma level of non-ester (compound [II]), 2.0 hr reference
- COND: mouse, in vivo, po, 100 mg/kg, 120 min
Where a name gives a salt, the structure may show the parent alone.
The reply should consist of the numeric value with the unit placed after it.

Solved cases (7 shown):
COMPOUND: CN(C)CCn1nnnc1SCC1=C(C(=O)OC(OC(=O)C2CCCCC2)C2CCCCC2)N2C(=O)[C@@H](NC(=O)Cc3csc(N)n3)[C@H]2SC1.Cl.Cl (some centres unmarked)
RESULT: 4700 ng/mL
--
COMPOUND: CCCC(=O)OC(OC(=O)C1=C(CSc2nnnn2CCN(C)C)CS[C@@H]2[C@H](NC(=O)Cc3csc(N)n3)C(=O)N12)C1CCCCC1 (some centres unmarked) [Compound No. 8, dihydrochloride]
RESULT: 2330 ng/mL
--
COMPOUND: CCCCC(=O)OC(OC(=O)C1=C(CSc2nnnn2CCN(C)C)CS[C@@H]2[C@H](NC(=O)Cc3csc(N)n3)C(=O)N12)C1CCCCC1.Cl.Cl (some centres unmarked)
RESULT: 3200 ng/mL
--
COMPOUND: CC(C)C(OC(=O)C1=C(CSc2nnnn2CCN(C)C)CS[C@@H]2[C@H](NC(=O)Cc3csc(N)n3)C(=O)N12)OC(=O)C1CCCCC1.Cl.Cl (some centres unmarked)
RESULT: 900 ng/mL
--
COMPOUND: CN(C)CCn1nnnc1SCC1=C(C(=O)OCOC(=O)C(C)(C)C)N2C(=O)[C@@H](NC(=O)Cc3csc(N)n3)[C@H]2SC1 [compound A, reference compound]
RESULT: 600 ng/mL
--
COMPOUND: CC(C)C(OC(=O)CC1CCCCC1)OC(=O)C1=C(CSc2nnnn2CCN(C)C)CS[C@@H]2[C@H](NC(=O)Cc3csc(N)n3)C(=O)N12.Cl.Cl (some centres unmarked)
RESULT: 2600 ng/mL
--
COMPOUND: CCC(OC(=O)C1=C(CSc2nnnn2CCN(C)C)CS[C@@H]2[C@H](NC(=O)Cc3csc(N)n3)C(=O)N12)OC(=O)C1CCCCC1.Cl.Cl (some centres unmarked)
RESULT: 1000 ng/mL

Query compound follows.
Quick note, Plasma level of non-ester (compound [II]), 2.0 hr for CCCC(OC(=O)C1=C(CSc2nnnn2CCN(C)C)CS[C@@H]2[C@H](NC(=O)Cc3csc(N)n3)C(=O)N12)OC(=O)C1CCCCC1.Cl.Cl (some centres unmarked) landed at 2800 ng/mL

* * *

- COND: mouse, in vivo, 100 mg/kg, 120 min
Where a name gives a salt, the structure may show the parent alone.
METRIC: Bioavailability (%)
Field format: number, assumed %, no unit text.

Solved cases (3 shown):
COMPOUND: CN(C)CCn1nnnc1SCC1=C(C(=O)OCOC(=O)C(C)(C)C)N2C(=O)[C@@H](NC(=O)Cc3csc(N)n3)[C@H]2SC1 [compound A, reference compound]
RESULT_UNIT: %
Bioavailability: 41.8

COMPOUND: CC(C)C(OC(=O)CC1CCCCC1)OC(=O)C1=C(CSc2nnnn2CCN(C)C)CS[C@@H]2[C@H](NC(=O)Cc3csc(N)n3)C(=O)N12.Cl.Cl (some centres unmarked)
RESULT_UNIT: %
Bioavailability: 88.8

COMPOUND: CCCCC(=O)OC(OC(=O)C1=C(CSc2nnnn2CCN(C)C)CS[C@@H]2[C@H](NC(=O)Cc3csc(N)n3)C(=O)N12)C1CCCCC1.Cl.Cl (some centres unmarked)
RESULT_UNIT: %
Bioavailability: 88.9

Quick note, Bioavailability for CCCC(=O)OC(OC(=O)C1=C(CSc2nnnn2CCN(C)C)CS[C@@H]2[C@H](NC(=O)Cc3csc(N)n3)C(=O)N12)C1CCCCC1 (some centres unmarked) [Compound No. 8, dihydrochloride] landed at 103.5

Quick note, Bioavailability for CCC(OC(=O)C1=C(CSc2nnnn2CCN(C)C)CS[C@@H]2[C@H](NC(=O)Cc3csc(N)n3)C(=O)N12)OC(=O)C1CCCCC1.Cl.Cl (some centres unmarked) landed at 86.4

Quick note, Bioavailability for CN(C)CCn1nnnc1SCC1=C(C(=O)OC(OC(=O)C2CCCCC2)C2CCCCC2)N2C(=O)[C@@H](NC(=O)Cc3csc(N)n3)[C@H]2SC1.Cl.Cl (some centres unmarked) landed at 107.8

Quick note, Bioavailability for CC(C)C(OC(=O)C1=C(CSc2nnnn2CCN(C)C)CS[C@@H]2[C@H](NC(=O)Cc3csc(N)n3)C(=O)N12)OC(=O)C1CCCCC1.Cl.Cl (some centres unmarked) landed at 94.4

Quick note, Bioavailability for CCCC(OC(=O)C1=C(CSc2nnnn2CCN(C)C)CS[C@@H]2[C@H](NC(=O)Cc3csc(N)n3)C(=O)N12)OC(=O)C1CCCCC1.Cl.Cl (some centres unmarked) landed at 98.8
